Origin of the recorded values: the supplement of paper PMC10065799

molecular target: Hck (UniProt P08631); assay: phosphorylation enrichment, bacterial display (enrichment ratio); higher = better substrate or ligand; peptides without Tyr show the background;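 also: 11-residue human phosphosite peptides and single-mutation variants displayed on the E. coli surface, counted by deep sequencing, each peptide's frequency after selection divided by its frequency in the unselected input library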;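 also: frequency after pTyr selection over input frequency; kinase dosed for 20-30% of maximal phosphorylation in three min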
Sequence (P08631 whole entry, looked up): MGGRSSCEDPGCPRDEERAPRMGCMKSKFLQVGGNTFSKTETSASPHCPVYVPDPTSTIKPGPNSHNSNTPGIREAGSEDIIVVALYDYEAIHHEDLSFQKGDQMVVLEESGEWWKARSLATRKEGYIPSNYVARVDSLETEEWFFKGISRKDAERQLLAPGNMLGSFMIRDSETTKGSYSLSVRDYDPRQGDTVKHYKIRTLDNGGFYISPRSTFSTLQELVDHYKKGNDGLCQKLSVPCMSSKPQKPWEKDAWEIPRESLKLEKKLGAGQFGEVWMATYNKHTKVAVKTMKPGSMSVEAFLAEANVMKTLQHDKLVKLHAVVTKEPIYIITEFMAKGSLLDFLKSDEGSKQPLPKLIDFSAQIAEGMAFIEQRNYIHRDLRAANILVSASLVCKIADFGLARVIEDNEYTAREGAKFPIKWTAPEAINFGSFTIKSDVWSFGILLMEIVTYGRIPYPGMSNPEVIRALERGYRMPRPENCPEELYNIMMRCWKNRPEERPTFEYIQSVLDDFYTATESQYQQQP
What phosphorylation enrichment was measured for each of the following?
Numbers only.

Take a look at these entries with their results.
>  <macromolecule-sequence>
AVRVFYRKCPH [EPHB2_Y194_R199H]

>  <metric-name>
phosphorylation enrichment

>  <endpoint-result>
0.604

$$$$
>  <macromolecule-sequence>
YTGSTYRVGDT [FN1_Y106_N104S]

>  <metric-name>
phosphorylation enrichment

>  <endpoint-result>
0.529

$$$$
>  <macromolecule-sequence>
WQQQSYLDFGI [CTNNB1_Y30_S33F]

>  <metric-name>
phosphorylation enrichment

>  <endpoint-result>
0.441

$$$$
>  <macromolecule-sequence>
YDKEYYSVHNK [MET_Y1235]

>  <metric-name>
phosphorylation enrichment

>  <endpoint-result>
0.922

$$$$
>  <macromolecule-sequence>
NFATLYLKIFH [PDE6B_Y219_YF]

>  <metric-name>
phosphorylation enrichment

>  <endpoint-result>
0.497

$$$$

# return phosphorylation enrichment for each item in the list
1. YEREQYADRTR [RBM4_Y355_A359T]
2. APSHAYHRGVL [ANO1_Y981_G983R]

Reply:
[0.469, 0.385]

Please state, for each entry, its recorded phosphorylation enrichment.
1. PHMQTYEVDHN [SDHB_Y61_L65H]
2. SQAPGYSFTAA [CYCS_Y47_G42S_YF]
3. RSFSPCDFQPC [TNS1_Y796_Y796C_YF]
4. HDRNTYEKYLE [TF_Y666_G671E]
5. PLQKTYNYNVL [SLC4A1_Y553]

Reply:
[0.506, 0.362, 0.786, 0.736, 0.596]

Answer for every listed entry: what is its phosphorylation enrichment? The entries follow.
1. QEGPEYWDGET [HLA-A_Y83_Q86G]
2. FETSHYPASPD [CTNND2_Y1217_YF]

Reply:
1. 0.712
2. 0.435

* * *

target: MERTK (UniProt Q12866); test: phosphorylation enrichment, bacterial display (enrichment ratio); higher = better substrate or ligand; peptides without Tyr show the background
Sequence (Q12866 whole entry, looked up): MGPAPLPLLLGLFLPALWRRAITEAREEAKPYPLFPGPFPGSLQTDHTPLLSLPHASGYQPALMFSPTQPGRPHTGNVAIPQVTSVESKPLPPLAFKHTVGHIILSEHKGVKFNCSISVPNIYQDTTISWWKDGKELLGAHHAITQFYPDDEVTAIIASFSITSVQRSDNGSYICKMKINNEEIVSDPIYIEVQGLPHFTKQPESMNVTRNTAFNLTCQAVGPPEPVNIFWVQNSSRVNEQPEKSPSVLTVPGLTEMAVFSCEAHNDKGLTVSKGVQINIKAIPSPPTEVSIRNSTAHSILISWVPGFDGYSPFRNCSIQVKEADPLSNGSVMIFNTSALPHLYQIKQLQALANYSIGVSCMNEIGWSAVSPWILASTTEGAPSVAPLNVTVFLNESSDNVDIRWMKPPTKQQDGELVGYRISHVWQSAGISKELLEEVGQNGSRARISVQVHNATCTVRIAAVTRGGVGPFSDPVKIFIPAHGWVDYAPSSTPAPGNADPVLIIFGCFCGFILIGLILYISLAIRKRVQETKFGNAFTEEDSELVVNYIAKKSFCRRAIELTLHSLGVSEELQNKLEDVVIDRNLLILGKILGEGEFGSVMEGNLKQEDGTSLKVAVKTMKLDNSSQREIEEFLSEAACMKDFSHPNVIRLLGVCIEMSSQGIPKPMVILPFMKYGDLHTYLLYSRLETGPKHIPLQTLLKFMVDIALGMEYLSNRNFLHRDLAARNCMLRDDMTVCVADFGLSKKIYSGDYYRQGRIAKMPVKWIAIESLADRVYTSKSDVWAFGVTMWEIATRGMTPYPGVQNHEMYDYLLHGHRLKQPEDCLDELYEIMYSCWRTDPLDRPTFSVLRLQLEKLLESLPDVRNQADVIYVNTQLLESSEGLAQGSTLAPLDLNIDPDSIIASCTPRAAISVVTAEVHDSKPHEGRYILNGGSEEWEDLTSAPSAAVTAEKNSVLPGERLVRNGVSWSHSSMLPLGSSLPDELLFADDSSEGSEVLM
Values of phosphorylation enrichment greater than or equal to 0.4 map to y; values below map to n.

>  <macromolecule-sequence>
KPAFSYTSSST [SIM1_Y356]

>  <assigned-category>
y

$$$$

Ask: Please indicate if the recorded phosphorylation enrichment for DVCKNYTEAKD [ALB_Y343_A344T] meets or exceeds 0.4.
Reply: y

Ask: Hello, I need to know if GSTLSYFGLAT [P2RX7_Y343_A348T] has measured phosphorylation enrichment not below 0.4. Thanks!
Reply: y

Ask: Test whether the sequence NACGLYYKLHN [GATA2_Y376] records phosphorylation enrichment of 0.4 or higher.
Reply: y

Ask: Reported phosphorylation enrichment at or above 0.4? LECEWYKNGVK [TTN_Y2112_P2107L]
Reply: y

* * *

So I've got a bunch of sequences here, and I need their phosphorylation enrichment values.
target: EPHB2 (UniProt P29323); assay: phosphorylation enrichment, bacterial display (enrichment ratio); higher = better substrate or ligand; peptides without Tyr show the background
Sequence (P29323 whole entry, looked up): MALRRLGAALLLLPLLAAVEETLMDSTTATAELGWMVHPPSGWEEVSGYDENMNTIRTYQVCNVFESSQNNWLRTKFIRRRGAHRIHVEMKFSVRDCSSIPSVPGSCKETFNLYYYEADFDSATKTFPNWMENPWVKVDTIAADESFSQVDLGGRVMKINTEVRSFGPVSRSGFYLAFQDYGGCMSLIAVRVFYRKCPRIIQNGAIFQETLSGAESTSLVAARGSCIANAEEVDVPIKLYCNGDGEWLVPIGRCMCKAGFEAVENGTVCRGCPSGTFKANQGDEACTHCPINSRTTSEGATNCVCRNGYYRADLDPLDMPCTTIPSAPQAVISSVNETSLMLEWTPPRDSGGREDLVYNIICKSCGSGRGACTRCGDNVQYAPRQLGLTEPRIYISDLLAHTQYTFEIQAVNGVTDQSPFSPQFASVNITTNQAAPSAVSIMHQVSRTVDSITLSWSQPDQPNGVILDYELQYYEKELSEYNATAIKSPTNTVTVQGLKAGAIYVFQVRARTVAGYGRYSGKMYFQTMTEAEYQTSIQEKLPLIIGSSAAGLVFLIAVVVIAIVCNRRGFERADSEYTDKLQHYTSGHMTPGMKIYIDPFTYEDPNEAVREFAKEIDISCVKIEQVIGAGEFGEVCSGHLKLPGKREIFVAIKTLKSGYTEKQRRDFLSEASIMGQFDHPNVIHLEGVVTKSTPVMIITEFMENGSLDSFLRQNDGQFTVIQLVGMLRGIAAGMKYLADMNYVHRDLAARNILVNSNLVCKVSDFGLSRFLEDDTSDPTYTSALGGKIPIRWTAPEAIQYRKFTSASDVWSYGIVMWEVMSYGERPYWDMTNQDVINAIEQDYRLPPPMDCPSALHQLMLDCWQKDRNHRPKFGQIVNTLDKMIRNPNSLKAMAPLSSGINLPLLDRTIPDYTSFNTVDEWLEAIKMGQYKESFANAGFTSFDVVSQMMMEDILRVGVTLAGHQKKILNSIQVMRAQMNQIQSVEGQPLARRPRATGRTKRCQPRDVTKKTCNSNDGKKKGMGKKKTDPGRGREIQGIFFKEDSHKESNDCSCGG
Give bare numbers.

Worked examples follow.
>  <macromolecule-sequence>
QRDSSYYWEIE [RAF1_Y340]

>  <endpoint-result>
1.14

$$$$
>  <macromolecule-sequence>
FAKTQYPDVYA [CRX_Y63]

>  <endpoint-result>
0.526

$$$$
>  <macromolecule-sequence>
QTLEAYIRCNK [SPAST_Y604_W607C]

>  <endpoint-result>
0.738

$$$$
>  <macromolecule-sequence>
FLAATYPTVGQ [NF1_Y2508_YF]

>  <endpoint-result>
0.494

$$$$

Could you tell me phosphorylation enrichment for each of these sequences? They are listed below.
1. IYRAAYFGVYD [SLC25A4_Y191]
2. SNNFIYKTLGV [FAM83B_Y639_YF]
3. TVLEPYADPYY [ZC3H18_Y367]
4. WNGDKYAATTT [TRIM39_Y439]

Reply:
1. 1.33
2. 0.485
3. 0.697
4. 0.592
